Ref: ChEMBL document CHEMBL1133807

Experiment: Inhibition of recombinant human Inositol 3,4,5,6 tetrakisphosphate 1-kinase using [3H]Ins(3,4,5,6)[…] as substrate
pIC50: −log10 of the molar value.
PROPERTY: pIC50

The examples below pair each entry with its known result.
SMILES RECORD | pIC50
O=P(O)(O)O[C@H]1[C@H](O)[C@@H](O)[C@H](OP(=O)(O)O)[C@@H](OP(=O)(O)O)[C@H]1O | ~5.40
O=P(O)(O)O[C@H]1[C@H](O)[C@@H](O)[C@H](OP(=O)(O)O)[C@H](OP(=O)(O)O)[C@@H]1O | ~5.05

Then there is this compound:
Need pIC50, item O=P(O)(O)O[C@@H]1[C@@H](O)[C@H](O)[C@@H](OP(=O)(O)O)[C@@H](OP(=O)(O)O)[C@H]1O
≤ 3.52
